# measured-on: UniProtKB Q8T6R7
# Sequence (Q8T6R7 26-150): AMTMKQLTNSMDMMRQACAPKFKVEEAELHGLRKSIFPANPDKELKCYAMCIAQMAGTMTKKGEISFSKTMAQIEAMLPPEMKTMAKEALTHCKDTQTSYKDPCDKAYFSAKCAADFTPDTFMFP
quantity-kind: IC50

[[record]]
compound = "CC(C)=CCCC(C)CC=O (stereo not shown) [citronellal]"
reading = "1.23 µM"


* * *

# measured-on: UniProt:Q7QCC7
# Sequence (Q7QCC7 whole entry): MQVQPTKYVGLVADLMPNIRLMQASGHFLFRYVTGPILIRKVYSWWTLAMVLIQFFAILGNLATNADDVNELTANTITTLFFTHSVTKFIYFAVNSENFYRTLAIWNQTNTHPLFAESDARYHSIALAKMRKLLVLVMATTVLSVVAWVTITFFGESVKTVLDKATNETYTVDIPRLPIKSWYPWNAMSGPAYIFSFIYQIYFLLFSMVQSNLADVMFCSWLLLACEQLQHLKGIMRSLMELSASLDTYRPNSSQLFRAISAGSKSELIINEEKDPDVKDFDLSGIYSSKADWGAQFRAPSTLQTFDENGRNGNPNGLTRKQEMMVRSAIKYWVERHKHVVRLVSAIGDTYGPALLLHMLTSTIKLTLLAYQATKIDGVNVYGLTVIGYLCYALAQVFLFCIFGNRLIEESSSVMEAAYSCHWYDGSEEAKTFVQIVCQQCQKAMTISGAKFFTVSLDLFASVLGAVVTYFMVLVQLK
quantity-kind: Ki (nM)

[[record]]
compound = "CC(C)=CCCC(C)CC=O (stereo not shown)"
measured_on = "UniProt:Q7QCC7"
quantity_kind = "Ki"
reading = 1570

